TESTED ON: human 5-HT1A receptor (Homo sapiens)
Construct: expressed in transfected cells; host or cells: Chinese hamster ovary cells (5-HT1A.CHO)
Sequence (P08908 whole entry): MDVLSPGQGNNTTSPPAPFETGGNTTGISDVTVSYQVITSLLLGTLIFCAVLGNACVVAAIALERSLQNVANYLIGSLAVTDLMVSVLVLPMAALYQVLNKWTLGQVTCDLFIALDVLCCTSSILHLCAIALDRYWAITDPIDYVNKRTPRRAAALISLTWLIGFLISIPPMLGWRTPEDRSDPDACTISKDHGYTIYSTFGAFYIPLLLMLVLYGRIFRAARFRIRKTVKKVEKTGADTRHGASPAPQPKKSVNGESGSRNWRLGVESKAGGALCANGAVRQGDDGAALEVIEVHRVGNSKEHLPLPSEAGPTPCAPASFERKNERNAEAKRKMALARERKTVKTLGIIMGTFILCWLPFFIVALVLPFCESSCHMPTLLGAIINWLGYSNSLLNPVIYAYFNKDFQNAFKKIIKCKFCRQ
ASSAY METHOD TEXT: human 5-HT1A receptor binding, [3H]8-OH-DPAT radioligand, membranes of 5-HT1A.CHO cells
PARTICULARS: 1 uM compound; [3H]8-OH-DPAT; value in parentheses; read-out: 5-HT1A % inh @ 1 uM

{"columns": ["CHEMICAL STRUCTURE", "inhibition at 1 µM"],
 "data": [
  ["COc1ccc2c(c1)CN([C@H]1CC[C@H](c3c[nH]c4ccc(C#N)cc43)CC1)CC2", "48%"],
  ["COc1cccc2c1CN([C@H]1CC[C@H](c3c[nH]c4ccc(C#N)cc43)CC1)CC2", "46%"],
  ["COc1cccc2c1CCN([C@H]1CC[C@@H](c3c[nH]c4ccc(C#N)cc43)CC1)C2", "7%"],
  ["N#Cc1ccc2[nH]cc([C@H]3CC[C@H](N4CCc5ccccc5C4)CC3)c2c1", "10%"],
  ["COc1ccc2c(c1)CN([C@H]1CC[C@@H](c3c[nH]c4ccc(C#N)cc43)CC1)CC2", "26%"],
  ["COc1cccc2c1CCN([C@H]1CC[C@H](c3c[nH]c4ccc(C#N)cc43)CC1)C2", "47%"],
  ["COc1ccc2c(c1)CCN([C@H]1CC[C@@H](c3c[nH]c4ccc(C#N)cc43)CC1)C2", "21%"],
  ["COc1cccc2c1CN([C@H]1CC[C@@H](c3c[nH]c4ccc(C#N)cc43)CC1)CC2", "14%"],
  ["Fc1ccc2[nH]cc(CCCN3CCc4ccccc4C3)c2c1", "48%"],
  ["N#Cc1ccc2[nH]cc([C@H]3CC[C@@H](N4CCc5ccccc5C4)CC3)c2c1", "0%"]
]}
